System: C6 Cells from glioblastomas of rats
Test: Cytotoxicity on the C6 cell line (quantitative neutral red assay)
Details: Rattus norvegicus, C6, 48 h
pIC50: −log10 of the molar value.
pIC50 for assorted compounds

Known pIC50 results, listed for orientation:
CC1(C)O[C@H]2[C@@H]([C@H]3COC(C)(C)O3)O[P@@](=O)(c3ccccc3)[C@@H](NCc3ccccc3)[C@H]2O1 | 5.30 to 6.10
CC1(C)O[C@H]2[C@@H]([C@H]3COC(C)(C)O3)O[P@@](=O)(c3ccccc3)[C@@H](Oc3ccc([N+](=O)[O-])cc3)[C@H]2O1 | 6.00 to 6.40
Cc1ccc(N[C@H]2[C@H]3OC(C)(C)O[C@H]3[C@@H]([C@H]3COC(C)(C)O3)O[P@@]2(=O)c2ccccc2)cc1 [Compound 3.30a] | 5.30 to 6.30
CC1(C)O[C@H]2[C@@H]([C@H]3COC(C)(C)O3)O[P@@](=O)(c3ccccc3)[C@@H](OC(=N)C(Cl)(Cl)Cl)[C@H]2O1 | 5.30 to 7.00
COc1ccc([P@]2(=O)O[C@H](COCc3ccccc3)[C@@H](OCc3ccccc3)[C@H](OCc3ccccc3)C2O)cc1 (stereo partly shown) [Compound 3.51a] | 5.30 to 7.00
O=[N+]([O-])c1ccc([P@]2(=O)O[C@H](COCc3ccccc3)[C@@H](OCc3ccccc3)[C@H](OCc3ccccc3)C2O)cc1 (single isomer, unassigned) | 5.30 to 7.00

[ask] Fill in the blank: the reported pIC50 of O=[P@@]1(c2ccccc2)O[C@H](COCc2ccccc2)[C@@H](OCc2ccccc2)[C@H](OCc2ccccc2)C1O (stereo partly shown) [Compound 3.48a] is ____.
[reply] 5.70 to 6.00
